System: Cytochrome P450 2D6 (Homo sapiens) | Read-out: log10 IC50
Sequence (P10635 whole entry): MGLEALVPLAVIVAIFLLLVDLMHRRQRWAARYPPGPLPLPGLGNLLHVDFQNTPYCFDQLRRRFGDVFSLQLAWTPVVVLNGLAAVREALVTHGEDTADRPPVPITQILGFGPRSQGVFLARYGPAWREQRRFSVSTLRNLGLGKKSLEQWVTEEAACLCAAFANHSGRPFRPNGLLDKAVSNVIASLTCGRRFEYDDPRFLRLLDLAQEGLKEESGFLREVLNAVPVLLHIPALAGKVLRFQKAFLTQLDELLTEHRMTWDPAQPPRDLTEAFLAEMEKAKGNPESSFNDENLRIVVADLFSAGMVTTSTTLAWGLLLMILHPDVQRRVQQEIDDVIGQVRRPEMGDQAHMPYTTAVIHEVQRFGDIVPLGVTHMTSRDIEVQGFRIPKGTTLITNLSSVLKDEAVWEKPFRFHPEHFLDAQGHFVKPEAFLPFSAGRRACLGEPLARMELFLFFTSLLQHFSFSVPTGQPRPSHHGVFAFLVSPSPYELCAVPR
Log scale reminder: IC50 in µM, then log10 taken.

Enquiry: Answer with reported log10 IC50 of `CC(=O)c1ccc(-c2cccnc2)s1`
Return: 2.59

Enquiry: Answer with reported log10 IC50 of `N=Cc1ccc(-c2cccnc2)s1.N=Cc1ccc(-c2cccnc2)s1.NCc1ccc(-c2cccnc2)s1`
Return: 2.29

Enquiry: Answer with reported log10 IC50 of `c1cncc(-c2ccsc2)c1`
Return: 2.39

Enquiry: Answer with reported log10 IC50 of `Fc1ccc(-c2ccsc2)cn1`
Return: 2.30

Enquiry: Answer with reported log10 IC50 of `CNc1ccc(-c2cccnc2)s1`
Return: 1.16

Enquiry: Answer with reported log10 IC50 of `Cc1cn(-c2cccnc2)cn1`
Return: 2.47

Enquiry: Answer with reported log10 IC50 of `Cn1cnc(-c2cccnc2)c1`
Return: 2.34

Origin of measurements: ChEMBL document CHEMBL1145288
